Target: PSD-95 61-724 6xHis (human, UniProt P78352 61-724)
Test: fluorescence polarisation
Ends that are not written are not given here.
parameter: Kd (nM)

[P] {TAMRA}-NNGYEKLSSIESDV [Peptide ligand: GluN2B (TAMRA-NNG-YEKLSSIESDV)]
[Q] {TAMRA}-NNGNTANRRTTPV [Peptide ligand: Stargazin (TAMRA-NNG-NTANRRTTPV)]
Lookup: Larger number for Kd: P , or Q ? Please identify the chosen entry by its label.
Found: Q
(Q: 2700 nM, P: 1200 nM)
